System: Duck Hepatitis B Virus (DHBV)
Test: Inhibition of DHBV release in stably DHBV-transfected LMH-D2 cells (dot-blot of supernatant DHBV DNA)
Assay type: cell-based
Details: concentration of CPP resulting in 50% inhibition of DHBV release, peptide added daily, PhosphorImager
Non-standard residues stand in square brackets, D forms with d. Residues, ends and D or L forms follow the SMILES beside them. *: point of attachment. Stearoyl = CCCCCCCCCCCCCCCCCC(=O)*; Palmitoyl = CCCCCCCCCCCCCCCC(=O)*; Myristoyl = CCCCCCCCCCCCCC(=O)*; Lauroyl = CCCCCCCCCCCC(=O)*; Decanoyl = CCCCCCCCCC(=O)*; Octanoyl = CCCCCCCC(=O)*
Could you mark each record true if its IC50 falls strictly under 2 µM, and false if it equals or exceeds it?

- CCCCCCCCCCCC(=O)N[C@H](Cc1c[nH]c2ccccc12)C(=O)N[C@H](CCCNC(=N)N)C(=O)N[C@H](CCCNC(=N)N)C(=O)N[C@H](CCCNC(=N)N)C(=O)N[C@H](CCCNC(=N)N)C(=O)N[C@H](CCCNC(=N)N)C(=O)N[C@H](CCCNC(=N)N)C(=O)N[C@H](CCCNC(=N)N)C(=O)N[C@H](CCCNC(=N)N)C(=O)NCC(N)=O [Dodeca-(Arg)8] (Lauroyl-[dW][dR][dR][dR][dR][dR][dR][dR][dR]G-NH2): true
- CCCCCCCCCC(=O)N[C@H](Cc1c[nH]c2ccccc12)C(=O)N[C@H](CCCNC(=N)N)C(=O)N[C@H](CCCNC(=N)N)C(=O)N[C@H](CCCNC(=N)N)C(=O)N[C@H](CCCNC(=N)N)C(=O)N[C@H](CCCNC(=N)N)C(=O)N[C@H](CCCNC(=N)N)C(=O)NCC(N)=O: false
- CCCCCCCCCCCCCC(=O)N[C@H](Cc1c[nH]c2ccccc12)C(=O)N[C@H](CCCNC(=N)N)C(=O)N[C@H](CCCNC(=N)N)C(=O)N[C@H](CCCNC(=N)N)C(=O)N[C@H](CCCNC(=N)N)C(=O)N[C@H](CCCNC(=N)N)C(=O)N[C@H](CCCNC(=N)N)C(=O)N[C@H](CCCNC(=N)N)C(=O)N[C@H](CCCNC(=N)N)C(=O)NCC(N)=O [Myrist-(Arg)8] (Myristoyl-[dW][dR][dR][dR][dR][dR][dR][dR][dR]G-NH2): true
- N=C(N)NCCC[C@@H](NC(=O)[C@H](N)Cc1c[nH]c2ccccc12)C(=O)N[C@H](CCCNC(=N)N)C(=O)N[C@H](CCCNC(=N)N)C(=O)N[C@H](CCCNC(=N)N)C(=O)N[C@H](CCCNC(=N)N)C(=O)N[C@H](CCCNC(=N)N)C(=O)N[C@H](CCCNC(=N)N)C(=O)N[C@H](CCCNC(=N)N)C(=O)NCC(N)=O [(Arg)8] (H-[dW][dR][dR][dR][dR][dR][dR][dR][dR]G-NH2): true
- CCCCCCCCCCCCCCCCCC(=O)N[C@H](Cc1c[nH]c2ccccc12)C(=O)N[C@H](CCCNC(=N)N)C(=O)N[C@H](CCCNC(=N)N)C(=O)N[C@H](CCCNC(=N)N)C(=O)N[C@H](CCCNC(=N)N)C(=O)N[C@H](CCCNC(=N)N)C(=O)N[C@H](CCCNC(=N)N)C(=O)N[C@H](CCCNC(=N)N)C(=O)N[C@H](CCCNC(=N)N)C(=O)NCC(N)=O [Stear-(Arg)8] (Stearoyl-[dW][dR][dR][dR][dR][dR][dR][dR][dR]G-NH2): true
- CCCCCCCC(=O)N[C@H](Cc1c[nH]c2ccccc12)C(=O)N[C@H](CCCNC(=N)N)C(=O)N[C@H](CCCNC(=N)N)C(=O)N[C@H](CCCNC(=N)N)C(=O)N[C@H](CCCNC(=N)N)C(=O)N[C@H](CCCNC(=N)N)C(=O)N[C@H](CCCNC(=N)N)C(=O)N[C@H](CCCNC(=N)N)C(=O)N[C@H](CCCNC(=N)N)C(=O)NCC(N)=O [Octa-(Arg)8] (Octanoyl-[dW][dR][dR][dR][dR][dR][dR][dR][dR]G-NH2): false
- CCCCCCCCCC(=O)N[C@H](Cc1c[nH]c2ccccc12)C(=O)N[C@H](CCCNC(=N)N)C(=O)N[C@H](CCCNC(=N)N)C(=O)N[C@H](CCCNC(=N)N)C(=O)N[C@H](CCCNC(=N)N)C(=O)N[C@H](CCCNC(=N)N)C(=O)N[C@H](CCCNC(=N)N)C(=O)N[C@H](CCCNC(=N)N)C(=O)N[C@H](CCCNC(=N)N)C(=O)NCC(N)=O [Deca-(Arg)8] (Decanoyl-[dW][dR][dR][dR][dR][dR][dR][dR][dR]G-NH2): true
- CCCCCCCCCC(=O)N[C@H](Cc1c[nH]c2ccccc12)C(=O)N[C@H](CCCNC(=N)N)C(=O)N[C@H](CCCNC(=N)N)C(=O)N[C@H](CCCNC(=N)N)C(=O)N[C@H](CCCNC(=N)N)C(=O)N[C@H](CCCNC(=N)N)C(=O)N[C@H](CCCNC(=N)N)C(=O)N[C@H](CCCNC(=N)N)C(=O)NCC(N)=O: true
- CCCCCCCCCCCCCCCC(=O)N[C@H](Cc1c[nH]c2ccccc12)C(=O)N[C@H](CCCNC(=N)N)C(=O)N[C@H](CCCNC(=N)N)C(=O)N[C@H](CCCNC(=N)N)C(=O)N[C@H](CCCNC(=N)N)C(=O)N[C@H](CCCNC(=N)N)C(=O)N[C@H](CCCNC(=N)N)C(=O)N[C@H](CCCNC(=N)N)C(=O)N[C@H](CCCNC(=N)N)C(=O)NCC(N)=O [Palmit-(Arg)8] (Palmitoyl-[dW][dR][dR][dR][dR][dR][dR][dR][dR]G-NH2): true

* * *

Tested on: Duck Hepatitis B Virus (DHBV)
Conditions: 16 h
Non-standard residues stand in square brackets, D forms with d. Residues, ends and D or L forms follow the SMILES beside them. *: point of attachment. Stearoyl = CCCCCCCCCCCCCCCCCC(=O)*; Palmitoyl = CCCCCCCCCCCCCCCC(=O)*; Myristoyl = CCCCCCCCCCCCCC(=O)*; Lauroyl = CCCCCCCCCCCC(=O)*; Decanoyl = CCCCCCCCCC(=O)*; Octanoyl = CCCCCCCC(=O)*
readout type: IC50

• CCCCCCCCCCCC(=O)N[C@H](Cc1c[nH]c2ccccc12)C(=O)N[C@H](CCCNC(=N)N)C(=O)N[C@H](CCCNC(=N)N)C(=O)N[C@H](CCCNC(=N)N)C(=O)N[C@H](CCCNC(=N)N)C(=O)N[C@H](CCCNC(=N)N)C(=O)N[C@H](CCCNC(=N)N)C(=O)N[C@H](CCCNC(=N)N)C(=O)N[C@H](CCCNC(=N)N)C(=O)NCC(N)=O [Dodeca-(Arg)8] (Lauroyl-[dW][dR][dR][dR][dR][dR][dR][dR][dR]G-NH2) = 900 nM
• CCCCCCCCCC(=O)N[C@H](Cc1c[nH]c2ccccc12)C(=O)N[C@H](CCCNC(=N)N)C(=O)N[C@H](CCCNC(=N)N)C(=O)N[C@H](CCCNC(=N)N)C(=O)N[C@H](CCCNC(=N)N)C(=O)N[C@H](CCCNC(=N)N)C(=O)N[C@H](CCCNC(=N)N)C(=O)N[C@H](CCCNC(=N)N)C(=O)NCC(N)=O [Deca-(Arg)7] = 900 nM
• CCCCCCCCCCCCCC(=O)N[C@H](Cc1c[nH]c2ccccc12)C(=O)N[C@H](CCCNC(=N)N)C(=O)N[C@H](CCCNC(=N)N)C(=O)N[C@H](CCCNC(=N)N)C(=O)N[C@H](CCCNC(=N)N)C(=O)N[C@H](CCCNC(=N)N)C(=O)N[C@H](CCCNC(=N)N)C(=O)N[C@H](CCCNC(=N)N)C(=O)N[C@H](CCCNC(=N)N)C(=O)NCC(N)=O [Myrist-(Arg)8] (Myristoyl-[dW][dR][dR][dR][dR][dR][dR][dR][dR]G-NH2) = 1200 nM
• CCCCCCCC(=O)N[C@H](Cc1c[nH]c2ccccc12)C(=O)N[C@H](CCCNC(=N)N)C(=O)N[C@H](CCCNC(=N)N)C(=O)N[C@H](CCCNC(=N)N)C(=O)N[C@H](CCCNC(=N)N)C(=O)N[C@H](CCCNC(=N)N)C(=O)N[C@H](CCCNC(=N)N)C(=O)N[C@H](CCCNC(=N)N)C(=O)N[C@H](CCCNC(=N)N)C(=O)NCC(N)=O [Octa-(Arg)8] (Octanoyl-[dW][dR][dR][dR][dR][dR][dR][dR][dR]G-NH2) = 1700 nM
• CCCCCCCCCC(=O)N[C@H](Cc1c[nH]c2ccccc12)C(=O)N[C@H](CCCNC(=N)N)C(=O)N[C@H](CCCNC(=N)N)C(=O)N[C@H](CCCNC(=N)N)C(=O)N[C@H](CCCNC(=N)N)C(=O)N[C@H](CCCNC(=N)N)C(=O)N[C@H](CCCNC(=N)N)C(=O)N[C@H](CCCNC(=N)N)C(=O)N[C@H](CCCNC(=N)N)C(=O)NCC(N)=O [Deca-(Arg)8] (Decanoyl-[dW][dR][dR][dR][dR][dR][dR][dR][dR]G-NH2) = 600 nM
• CCCCCCCCCCCCCCCCCC(=O)N[C@H](Cc1c[nH]c2ccccc12)C(=O)N[C@H](CCCNC(=N)N)C(=O)N[C@H](CCCNC(=N)N)C(=O)N[C@H](CCCNC(=N)N)C(=O)N[C@H](CCCNC(=N)N)C(=O)N[C@H](CCCNC(=N)N)C(=O)N[C@H](CCCNC(=N)N)C(=O)N[C@H](CCCNC(=N)N)C(=O)N[C@H](CCCNC(=N)N)C(=O)NCC(N)=O [Stear-(Arg)8] (Stearoyl-[dW][dR][dR][dR][dR][dR][dR][dR][dR]G-NH2) = 1900 nM
• CCCCCCCCCC(=O)N[C@H](Cc1c[nH]c2ccccc12)C(=O)N[C@H](CCCNC(=N)N)C(=O)N[C@H](CCCNC(=N)N)C(=O)N[C@H](CCCNC(=N)N)C(=O)N[C@H](CCCNC(=N)N)C(=O)N[C@H](CCCNC(=N)N)C(=O)N[C@H](CCCNC(=N)N)C(=O)N[C@H](CCCNC(=N)N)C(=O)N[C@H](CCCNC(=N)N)C(=O)N[C@H](CCCNC(=N)N)C(=O)NCC(N)=O [Deca-(Arg)9] (Decanoyl-[dW][dR][dR][dR][dR][dR][dR][dR][dR][dR]G-NH2) = 1600 nM
• CCCCCCCCCCCCCCCC(=O)N[C@H](Cc1c[nH]c2ccccc12)C(=O)N[C@H](CCCNC(=N)N)C(=O)N[C@H](CCCNC(=N)N)C(=O)N[C@H](CCCNC(=N)N)C(=O)N[C@H](CCCNC(=N)N)C(=O)N[C@H](CCCNC(=N)N)C(=O)N[C@H](CCCNC(=N)N)C(=O)N[C@H](CCCNC(=N)N)C(=O)N[C@H](CCCNC(=N)N)C(=O)NCC(N)=O [Palmit-(Arg)8] (Palmitoyl-[dW][dR][dR][dR][dR][dR][dR][dR][dR]G-NH2) = 1800 nM
• CCCCCCCCCC(=O)N[C@H](CCCNC(=N)N)C(=O)N[C@H](CCCNC(=N)N)C(=O)N[C@H](CCCNC(=N)N)C(=O)N[C@H](CCCNC(=N)N)C(=O)N[C@H](CCCCN)C(=O)N[C@H](CCCCN)C(=O)N[C@H](CCCCN)C(=O)N[C@H](CCCCN)C(=O)NCC(N)=O [Deca-(Arg-Lys)4–4] (Decanoyl-[dR][dR][dR][dR][dK][dK][dK][dK]G-NH2) = 2300 nM
• CCCCCCCCCC(=O)N[C@H](Cc1c[nH]c2ccccc12)C(=O)N[C@H](CCCNC(=N)N)C(=O)N[C@H](CCCNC(=N)N)C(=O)N[C@H](CCCNC(=N)N)C(=O)N[C@H](CCCNC(=N)N)C(=O)N[C@H](CCCNC(=N)N)C(=O)N[C@H](CCCNC(=N)N)C(=O)N[C@H](CCCNC(=N)N)C(=O)N[C@H](CCCNC(=N)N)C(=O)N[C@H](CCCNC(=N)N)C(=O)N[C@H](CCCNC(=N)N)C(=O)NCC(N)=O [Deca-(Arg)10] = 1400 nM
• N=C(N)NCCC[C@@H](NC(=O)[C@H](N)Cc1c[nH]c2ccccc12)C(=O)N[C@H](CCCNC(=N)N)C(=O)N[C@H](CCCNC(=N)N)C(=O)N[C@H](CCCNC(=N)N)C(=O)N[C@H](CCCNC(=N)N)C(=O)N[C@H](CCCNC(=N)N)C(=O)N[C@H](CCCNC(=N)N)C(=O)N[C@H](CCCNC(=N)N)C(=O)NCC(N)=O [(Arg)8] (H-[dW][dR][dR][dR][dR][dR][dR][dR][dR]G-NH2) = 1800 nM
